STUDY_SYSTEM: LHRH receptor (LHRH binding sites) on EFO-27 human ovarian cancer cells (human)
ASSAY: direct binding of 177Lu-labeled peptide to EFO-27 cells, single concentration
Non-standard residues stand in square brackets, D forms with d. Bpa = N[C@@H](Cc1ccc(C(=O)c2ccccc2)cc1)C(=O)O; DO3A10CM = not defined here; Amfe4 = not defined here; azaGly = NNC(=O)O; Sar = CNCC(=O)O
PROPERTY_NAME: % Bound (%)

[a] DO3A10CM-[Sar]HWSH[dR]WP[azaGly]-NH2 (reading uncertain; also: 177Lu complexed by DO3A10CM, printed as 177Lu-DO3A10CM-Sar-His-Trp-Ser-His-Darg-Trp-azaG-NH2) [^177Lu-BRU-2767]
[b] DO3A10CM-[Sar][Amfe4]WSH[dR]W[Bpa]P[azaGly]-NH2 (reading uncertain; also: 177Lu complexed by DO3A10CM, printed as 177Lu-DO3A10CM-Sar-Amfe4-Trp-Ser-His-Darg-Trp-Bpa4-Pro-azaGly-NH2) [^177Lu-BRU-2756]
Inquiry: Rank a against b by their % Bound values and give the higher one. Refer to your chosen item by its label in the answer.
Reply text: b
